Reference source for all entries: PubChem BioAssay AID1159580

- test-method-notes: chemical genetic growth profiling, strain panel (AID 1159580);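 also: tested at 20 µM; growth read once vehicle control cultures reached saturation at 30 °C; lower values mean less growth of the strain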
- condition: S. cerevisiae deletion strains, growth OD, locus YLR403W, strain SFP1
In all, about 5,500 compounds went through this assay and about 2,000 (36%) were called active. Not shown: some 18% with an inconclusive outcome. Rule as the data show it: active = normalized growth mostly below about 0.91 (no sharp cut-off); inconclusive = no clear call, values can overlap the other calls; inactive = mostly above about 0.92. The list shows a part of the results.
Your answer must be one of the following: active, inactive

Worked set:
[[record]]
compound = "S=C(NCCc1csc2ccccc12)Nc1ccc(Cl)cc1"
label_class = "inactive"

[[record]]
compound = "COc1cc(C2CC(=S)Nc3ccccc3S2)cc(OC)c1OC (centres undefined)"
label_class = "inactive"

[[record]]
compound = "Cc1cc(Sc2c([N+](=O)[O-])cc(C(F)(F)F)cc2[N+](=O)[O-])c(Cl)cc1Cl"
label_class = "inactive"

[[record]]
compound = "CCOC(=O)C(O)(c1ccc(NC(=O)c2ccc(Cl)c(Cl)c2)cc1)C(F)(F)F (centres undefined)"
label_class = "inactive"


Continue with the next compound.
Lookup: Give the logged outcome of this assay for the following compound: O=C(Nc1cc(Cl)cc(Cl)c1)c1cc(Br)ccc1O
Found: inactive
